# Test system: OVCAR-3
# method: NCI 60 cell line five dose, Ovarian Cancer
measuredParameter: TGI (nM)
Please reply with the bare figure in nM and do not write the unit itself.

Examples from the recorded data:
INSERT INTO assay_data (smilesstring, measuredparameter, uom, quantitativereadout) VALUES
  ('C=C1C(=O)O[C@H]2[C@H]1CC/C(COC(=O)CCC(=O)NCCCCCCCCNC(=O)CCC(=O)OC/C1=C/CC[C@@]3(C)O[C@H]3[C@H]3OC(=O)C(=C)[C@@H]3CC1)=C\CC[C@@]1(C)O[C@@H]21', 'TGI', 'nM', 2820),
  ('C=C1C(=O)O[C@H]2[C@H]1CC/C(COC(=O)CCC(=O)NCCCCCCCCCNC(=O)CCC(=O)OC/C1=C/CC[C@@]3(C)O[C@H]3[C@H]3OC(=O)C(=C)[C@@H]3CC1)=C\CC[C@@]1(C)O[C@@H]21', 'TGI', 'nM', 2610),
  ('C=C1C(=O)O[C@H]2[C@H]1CC/C(COC(=O)NCCCCNC(=O)OC/C1=C/CC[C@@]3(C)O[C@H]3[C@H]3OC(=O)C(=C)[C@@H]3CC1)=C\CC[C@@]1(C)O[C@@H]21', 'TGI', 'nM', 2010);

Exercise: Assign TGI to the following record: C=C1C(=O)O[C@H]2[C@H]1CC/C(COC(=O)NCCCCCNC(=O)OC/C1=C/CC[C@@]3(C)O[C@H]3[C@H]3OC(=O)C(=C)[C@@H]3CC1)=C\CC[C@@]1(C)O[C@@H]21
Key: 2130

Data credit: patent US10118935B2
